assay: Concentration in rat plasma 24 hours after single 5 mg/kg oral cassette gavage dose; assay type: ADME, organism-based; design: dose 5 mg/kg, route oral; conditions: read-out: C24
observed.property: concentration at 24 h
Answer shape: numeric part, then the unit.

The molecule CC(C)[C@@H](NS(=O)(=O)c1ccc(-c2ccc(C#N)cc2)cc1)C(=O)O showed concentration at 24 h equal to 4490 ng/mL

The molecule CC(C)C[C@H](NS(=O)(=O)c1ccc(-c2ccc(Br)cc2)cc1)C(=O)O showed concentration at 24 h equal to 12400 ng/mL

The molecule O=C(O)CNS(=O)(=O)c1ccc(-c2ccc(Br)cc2)cc1 showed concentration at 24 h equal to 5670 ng/mL

The molecule O=C(O)C(CCSCc1ccccc1)NS(=O)(=O)c1ccc(-c2ccc(Br)cc2)cc1 (centres undefined) showed concentration at 24 h equal to 1530 ng/mL

The molecule CC(C)[C@@H](NS(=O)(=O)c1ccc(-c2ccc(Br)cc2)cc1)C(=O)O showed concentration at 24 h equal to 16300 ng/mL

The molecule CC(C)[C@H](NS(=O)(=O)c1ccc(-c2ccc(Br)cc2)cc1)C(=O)O showed concentration at 24 h equal to 22700 ng/mL

The molecule CC(C)[C@@H](NS(=O)(=O)c1ccc(-c2ccc(Br)cc2)cc1)C(=O)NO showed concentration at 24 h equal to 10 ng/mL

The molecule CC(C)[C@H](NS(=O)(=O)c1ccc(-c2ccc([N+](=O)[O-])cc2)cc1)C(=O)O showed concentration at 24 h equal to 8360 ng/mL

The molecule CC(C)[C@H](NS(=O)(=O)c1ccc(-c2ccc(F)cc2)cc1)C(=O)O showed concentration at 24 h equal to 11300 ng/mL

Just for reference, ChEMBL document CHEMBL1133013 is where these values come from.
